# SYSTEM_NAME: Toxin B (Clostridioides difficile) (UniProt P18177)
# Sequence (P18177 whole entry, looked up): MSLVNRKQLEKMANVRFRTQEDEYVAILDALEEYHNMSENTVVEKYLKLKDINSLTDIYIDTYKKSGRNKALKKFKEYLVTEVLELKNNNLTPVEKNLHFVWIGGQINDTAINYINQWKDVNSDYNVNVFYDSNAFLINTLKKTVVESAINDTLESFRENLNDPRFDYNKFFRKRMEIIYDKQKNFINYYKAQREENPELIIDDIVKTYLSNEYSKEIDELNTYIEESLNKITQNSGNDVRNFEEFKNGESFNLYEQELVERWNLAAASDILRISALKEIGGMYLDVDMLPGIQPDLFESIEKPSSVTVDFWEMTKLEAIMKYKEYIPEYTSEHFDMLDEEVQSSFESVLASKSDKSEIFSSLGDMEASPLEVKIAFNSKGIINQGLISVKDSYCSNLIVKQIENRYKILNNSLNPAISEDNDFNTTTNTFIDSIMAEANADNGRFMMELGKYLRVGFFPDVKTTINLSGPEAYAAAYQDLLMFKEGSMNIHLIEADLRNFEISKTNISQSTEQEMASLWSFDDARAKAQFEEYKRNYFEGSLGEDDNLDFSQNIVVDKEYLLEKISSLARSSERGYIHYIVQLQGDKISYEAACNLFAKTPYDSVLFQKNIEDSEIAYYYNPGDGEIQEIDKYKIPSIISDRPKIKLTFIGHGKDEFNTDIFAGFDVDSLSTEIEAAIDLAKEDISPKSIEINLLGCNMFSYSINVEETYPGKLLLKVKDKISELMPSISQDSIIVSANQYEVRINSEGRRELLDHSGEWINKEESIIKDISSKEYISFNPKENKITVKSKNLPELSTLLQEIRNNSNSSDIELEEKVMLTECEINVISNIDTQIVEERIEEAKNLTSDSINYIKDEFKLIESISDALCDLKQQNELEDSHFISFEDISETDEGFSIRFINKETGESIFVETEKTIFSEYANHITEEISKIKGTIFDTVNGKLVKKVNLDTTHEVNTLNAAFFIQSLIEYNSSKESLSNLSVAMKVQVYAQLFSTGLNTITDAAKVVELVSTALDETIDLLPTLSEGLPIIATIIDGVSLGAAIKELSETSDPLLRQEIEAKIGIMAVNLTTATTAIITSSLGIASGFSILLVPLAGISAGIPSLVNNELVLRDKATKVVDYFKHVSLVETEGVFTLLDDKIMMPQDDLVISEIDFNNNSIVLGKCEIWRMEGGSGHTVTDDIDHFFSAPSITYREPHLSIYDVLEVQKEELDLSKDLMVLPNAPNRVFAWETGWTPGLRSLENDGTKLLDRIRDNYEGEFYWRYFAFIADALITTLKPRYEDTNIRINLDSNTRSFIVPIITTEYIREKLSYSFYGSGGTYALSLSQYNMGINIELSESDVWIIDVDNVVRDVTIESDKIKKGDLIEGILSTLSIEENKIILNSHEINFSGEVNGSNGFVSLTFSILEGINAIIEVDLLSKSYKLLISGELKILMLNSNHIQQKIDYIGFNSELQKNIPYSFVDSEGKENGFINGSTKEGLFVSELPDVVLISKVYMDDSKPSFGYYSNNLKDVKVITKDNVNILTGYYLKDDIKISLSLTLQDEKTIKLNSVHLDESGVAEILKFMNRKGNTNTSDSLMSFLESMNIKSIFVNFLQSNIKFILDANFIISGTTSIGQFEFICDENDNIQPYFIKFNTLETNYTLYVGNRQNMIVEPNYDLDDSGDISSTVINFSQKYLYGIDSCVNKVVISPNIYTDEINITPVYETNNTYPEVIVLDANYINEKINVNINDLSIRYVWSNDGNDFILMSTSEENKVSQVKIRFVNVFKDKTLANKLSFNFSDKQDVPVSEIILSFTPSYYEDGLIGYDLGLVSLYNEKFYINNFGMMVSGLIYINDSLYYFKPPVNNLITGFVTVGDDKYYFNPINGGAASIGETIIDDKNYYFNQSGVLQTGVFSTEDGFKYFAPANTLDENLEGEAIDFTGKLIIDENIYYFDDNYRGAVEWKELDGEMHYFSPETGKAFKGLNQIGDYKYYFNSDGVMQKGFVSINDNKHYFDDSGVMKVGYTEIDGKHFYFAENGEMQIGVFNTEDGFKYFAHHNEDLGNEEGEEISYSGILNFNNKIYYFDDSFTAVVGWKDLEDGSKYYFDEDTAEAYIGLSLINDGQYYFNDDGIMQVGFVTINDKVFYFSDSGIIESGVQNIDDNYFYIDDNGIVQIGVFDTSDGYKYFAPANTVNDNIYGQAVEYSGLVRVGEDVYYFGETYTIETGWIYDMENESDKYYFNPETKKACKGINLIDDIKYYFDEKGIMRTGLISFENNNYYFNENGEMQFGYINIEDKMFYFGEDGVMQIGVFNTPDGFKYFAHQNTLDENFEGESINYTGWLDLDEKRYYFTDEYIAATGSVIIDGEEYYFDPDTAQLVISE
# PROCEDURE_DETAILS: TcdB glycohydrolase inhibitors, primary screen, biochemical, single point, plate reader (AID 652162)
# CONDITION_CONTEXT: TcdB glycohydrolase enzymatic assay, at 9.99 µM
About 840 (0.24%) of roughly 350,000 compounds were called active. Rule as the data show it: active = inhibition above about 10%; inactive = the rest. This excerpt belongs to a sample that is enriched for actives.
Could you please pick one outcome from this set? label 1 (active), label 0 (inactive)

Consider the following illustrative entries.
| TEST_SMILES | DISCRETE_LABEL |
| --- | --- |
| CCCNC(=O)C[C@H]1C[C@@H]2c3cc(NC(=O)NC4CCCC4)ccc3O[C@@H]2[C@@H](CO)O1 | label 0 |
| Cc1cc(C(=O)Nc2ccc3c(c2)C(=O)N(C)[C@H]2CC[C@H](CC(=O)NCC(F)(F)F)O[C@@H]2CO3)no1 | label 0 |
| COc1cccc(OC)c1C(=O)NC(=S)NCc1ccco1 | label 0 |

Query: Any idea what this test logged for `COc1cccc2cc(C(=O)NCc3ccc(C)cc3)c(=N)oc12` ?
Reply: label 0

Query: Each compound tested received a call. Report the one for `COc1cccc(NC(=O)N[C@@H]2C=C[C@H](CC(=O)NCc3ccccn3)O[C@H]2CO)c1` .
Reply: label 0

Query: Entry `COc1cccc2cc(C(N)=O)/c(=N\NC(=O)c3ccccc3)oc12` : call = ?
Reply: label 0

Query: Outcome logged for `CN1C(=O)c2cc(NC(=O)Nc3ccccc3F)ccc2OC[C@H]2O[C@H](CC(=O)NCc3ccc(-c4ccccc4)cc3)CC[C@H]21` in this assay:
Reply: label 0

Query: Please indicate how the test categorized `Cc1ccc(C)c(OCC(=O)NNC(=O)C2CCC2)c1` .
Reply: label 0

Query: # outcome recorded in this test, key = `O=C(C[C@@H]1CC[C@H](NC(=O)Cc2ccccn2)[C@H](CO)O1)NCCc1ccncc1`
Reply: label 0

Query: Record request — test call for `COc1ccc(CN(C)C[C@H]2OCCCC[C@H](C)Oc3ccc(NC(=O)NC4CCCCC4)cc3C(=O)N([C@@H](C)CO)C[C@@H]2C)cc1`
Reply: label 0

Query: # outcome recorded in this test, key = `C/C=C/c1ccc2c(c1)O[C@H](CN(C)Cc1cccc(F)c1)[C@H](C)CN([C@H](C)CO)S2(=O)=O`
Reply: label 0
